Listing of recorded Time by entry.
# Test system: Mus musculus
# Protocol Summary: Toxicity in mouse assessed as effect on pentobarbital sodium-induced hypnotic effect measured as loss of righting reflex latency at 200 mg/kg pretreated for 30 mins prior to pentobarbital sodium-challenge
# Format: organism-based
# Parameters: dose 200 mg/kg
# Test Settings: in vivo
Give a bare numeral; the unit min is implied.

> print(dat)
                                   compound  measurement.type  observed.result
1  Clc1ccc2c(c1)CCc1cccnc1C2=C1CCN(C2CCC(Cl)CC2)CC1 (stereo not given)              Time             1.62
2  ClCCCN1CCC(=C2c3ccc(Cl)cc3CCc3cccnc32)CC1              Time             1.58
3  OCCCN1CCC(=C2c3ccc(Cl)cc3CCc3cccnc32)CC1              Time             1.46

Lookup: Time for CCCN1CCC(=C2c3ccc(Cl)cc3CCc3cccnc32)CC1 ?
Found: 1.61

Lookup: Proceed to FCCCN1CCC(=C2c3ccc(Cl)cc3CCc3cccnc32)CC1
Found: 1.45
